# test-system: Epidermal growth factor receptor [T790M,C797S,L858R] (UniProt P00533, C797S/L858R/T790M)
# Sequence (P00533 25-1210 T790M/C797S/L858R limits assumed): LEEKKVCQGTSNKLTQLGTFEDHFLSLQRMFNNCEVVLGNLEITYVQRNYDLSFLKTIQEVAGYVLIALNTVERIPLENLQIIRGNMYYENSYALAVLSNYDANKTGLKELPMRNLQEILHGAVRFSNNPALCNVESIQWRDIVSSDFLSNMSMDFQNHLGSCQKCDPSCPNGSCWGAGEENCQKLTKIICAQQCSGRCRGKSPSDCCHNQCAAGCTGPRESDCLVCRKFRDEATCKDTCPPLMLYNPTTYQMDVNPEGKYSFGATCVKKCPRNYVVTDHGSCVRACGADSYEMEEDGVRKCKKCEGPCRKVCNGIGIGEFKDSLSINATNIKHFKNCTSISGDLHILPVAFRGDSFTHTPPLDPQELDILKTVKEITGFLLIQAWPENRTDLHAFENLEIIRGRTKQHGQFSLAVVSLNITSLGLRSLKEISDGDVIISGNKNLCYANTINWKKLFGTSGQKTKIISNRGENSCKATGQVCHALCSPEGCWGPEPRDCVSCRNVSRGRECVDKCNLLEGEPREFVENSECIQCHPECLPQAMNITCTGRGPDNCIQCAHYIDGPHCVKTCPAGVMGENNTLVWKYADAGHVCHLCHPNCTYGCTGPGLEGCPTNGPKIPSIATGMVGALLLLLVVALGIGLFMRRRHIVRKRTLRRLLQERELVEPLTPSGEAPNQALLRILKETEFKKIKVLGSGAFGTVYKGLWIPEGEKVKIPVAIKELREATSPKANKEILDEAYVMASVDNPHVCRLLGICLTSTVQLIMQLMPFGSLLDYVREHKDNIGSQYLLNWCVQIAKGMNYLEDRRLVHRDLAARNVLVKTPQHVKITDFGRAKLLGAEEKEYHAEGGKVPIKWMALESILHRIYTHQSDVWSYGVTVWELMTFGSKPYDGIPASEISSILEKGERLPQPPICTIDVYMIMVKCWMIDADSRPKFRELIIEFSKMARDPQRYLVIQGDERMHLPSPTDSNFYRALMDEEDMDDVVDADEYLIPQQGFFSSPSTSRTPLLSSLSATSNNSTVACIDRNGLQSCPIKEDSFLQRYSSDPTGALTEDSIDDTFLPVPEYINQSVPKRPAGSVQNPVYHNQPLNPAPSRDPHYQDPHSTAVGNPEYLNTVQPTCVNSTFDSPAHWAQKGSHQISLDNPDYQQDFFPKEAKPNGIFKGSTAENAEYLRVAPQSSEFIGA
# method-notes: Inhibitory Activity for EGFR (L858R/T790M/C797S) Kinase
pIC50: −log10 of the molar value.
measurement-label: pIC50

Solved cases below.
## Task Any idea what pIC50 was measured for Cc1cc2cc(n1)-c1cnn(C)c1OCCC[C@@H](C1CC1)CN1/C(=N/C2=O)Nc2ccc(NCCCN(C)C)cc21 [US20250034165, Example 27] ?
## Result 10.48

## Task Fill blank: measured pIC50 of the compound Cc1cc2cc(n1)-c1cnn(C)c1OCCC[C@@H](C1CC1)CN1/C(=N/C2=O)Nc2ccc(NC(=O)CCN(C)C)cc21 [US20250034165, Example 112] is ____.
## Result 9.92

## Task Using the record for Cc1cc2cc(n1)-c1cnn(C)c1OCCC[C@@H](C1CC1)CN1/C(=N/C2=O)Nc2cc(NCCCN(C)C)ccc21 [US20250034165, Example 44] , report its pIC50.
## Result 11.15

## Task Which pIC50 is reported for this compound? Cc1cc2cc(n1)-c1cnn(C)c1OCCC[C@@H](C1CC1)CN1/C(=N/C2=O)Nc2cc(NCCN3CCOCC3)ccc21 [US20250034165, Example 3]
## Result 10.66

## Task Can you look up the measured pIC50 of Cc1cc2cc(n1)-c1cnn(C)c1OCCC[C@@H](C1CC1)CN1/C(=N/C2=O)Nc2cc(NC3(C)CNC3)ccc21 [US20250034165, Example 34] for me?
## Result 10.55

## Task Which pIC50 value is on record for Cc1cc2cc(n1)-c1cnn(C)c1OCCC[C@@H](C1CC1)CN1/C(=N/C2=O)Nc2ccc(N(C)CCN(C)C)cc21 [US20250034165, Example 45] ?
## Result 10.62

I = Cc1cc2cc(n1)-c1cnn(C3CC3)c1OCCC[C@@H](C)CN1/C(=N/C2=O)Nc2ccc(N3CC[C@H](O)C3)cc21 [US20250034165, Example 16]
II = Cc1cc2cc(n1)-c1cnn(C)c1OCCC[C@@H](C1CC1)CN1/C(=N/C2=O)Nc2cc(NC3(C)COC3)ccc21 [US20250034165, Example 29]
III = Cc1cc2cc(n1)-c1cnn(C)c1OCCC[C@@H](C1CC1)CN1/C(=N/C2=O)Nc2cc(NCC3CCOCC3)ccc21 [US20250034165, Example 22]
IV = Cc1cc2cc(n1)-c1cnn(C)c1OCCC[C@@H](C1CC1)CN1/C(=N/C2=O)Nc2cc(N[C@H](C)CN(C)C)ccc21 [US20250034165, Example 67]
V = Cc1cc2cc(n1)-c1cnn(C)c1OCCC[C@@H](C1CC1)CN1/C(=N/C2=O)Nc2cc(NCCN(C)C)ccc21 [US20250034165, Example 42]
## Task Please give the order of these compounds when sorted by pIC50, largest value leading. A ranking is expressed here by listing the labels in the requested order.
## Result V, II, III, I, IV

a = Cc1cc2cc(n1)-c1cnn(C)c1OCCC[C@@H](C1CC1)CN1/C(=N/C2=O)Nc2cc(NC3CC(N(C)C)C3)ccc21 (stereo partly drawn) [US20250034165, Example 93]
b = Cc1cc2cc(n1)-c1cnn(C)c1OCCC[C@@H](C1CC1)CN1/C(=N/C2=O)Nc2ccc(NC3CC(N(C)C)C3)cc21 (stereo partly drawn) [US20250034165, Example 98]
## Task For the pair a and b , which member has the lower pIC50 number? Record your answer as the label of the chosen record.
## Result a
(a: 9.30, b: 9.55)

a = Cc1cc2cc(n1)-c1cnn(C)c1OCCC[C@@H](C1CC1)CN1/C(=N/C2=O)Nc2ccc(N[C@H]3C[C@H](N(C)C)C3)cc21 [US20250034165, Example 128]
b = Cc1cc2cc(n1)-c1cnn(C)c1OCCC[C@@H](C1CC1)CN1/C(=N/C2=O)Nc2cc(NC3CNC3)ccc21 [US20250034165, Example 32]
c = Cc1cc2cc(n1)-c1cnn(C)c1OCCC[C@@H](C1CC1)CN1/C(=N/C2=O)Nc2cc(N[C@H]3C[C@@H](N(C)C)C3)ccc21 [US20250034165, Example 125]
d = Cc1cc2cc(n1)-c1cnn(C3CC3)c1OCCC[C@@H](C)CN1/C(=N/C2=O)Nc2ccc(NCCN(C)C)cc21 [US20250034165, Example 17]
e = Cc1cc2cc(n1)-c1cnn(C3CC3)c1OCCC[C@@H](C)CN1/C(=N/C2=O)Nc2cc(NC3CCN(C)CC3)ccc21 [US20250034165, Example 12]
## Task With regard to pIC50, arrange the entries in ascending order, please. Field: ranking. Enter the labels in the order requested.
## Result a, e, c, b, d
(a: 9.34, e: 9.70, c: 10.03, b: 10.54, d: 11.10)

a = Cc1cc2cc(n1)-c1cnn(C)c1OCCC[C@@H](C1CC1)CN1/C(=N/C2=O)Nc2cc(N[C@@H]3CCOC3)ccc21 [US20250034165, Example 43]
b = Cc1cc2cc(n1)-c1cnn(C)c1OCCC[C@@H](C1CC1)CN1/C(=N/C2=O)Nc2ccc(N(C)C3CCN(C)CC3)cc21 [US20250034165, Example 117]
## Task Higher pIC50: a or b ? Reply briefly: the label of your chosen item.
## Result a
